Cited source: patent US20170296650A1

measurementTarget: hCMV UL130 + UL131A (HEK293T co-transfectant) (hCMV, UniProt P16772 1-214)
Sequence (P16772 whole entry): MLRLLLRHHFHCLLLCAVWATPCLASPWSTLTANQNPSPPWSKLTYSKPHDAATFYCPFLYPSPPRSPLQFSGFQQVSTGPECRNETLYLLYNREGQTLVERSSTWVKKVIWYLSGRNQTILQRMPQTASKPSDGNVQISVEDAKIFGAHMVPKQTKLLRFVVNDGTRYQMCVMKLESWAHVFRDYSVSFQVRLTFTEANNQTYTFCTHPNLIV
experiment: cell-based or functional assay
Can you tell me 50% neutralization VR1814, MRC-9 for the items I'm about to list?

Answered cases to consult:
binder: 10F7 (antibody, V domains shown, human IgG; also called 10F7-biotin) VH: EVQLVESGGGLVQPGRSLRLSCTASGFTFGDYAMSWFRQAPGKGLEWVGFIRSKAYGGTTEYAASVKGRFTISRDDSKSIAYLQMNSLKTEDTAVYYCTRASSLLWLLNPQPNFDYWGQGTLVTVSS VL: SYVLTQPPSVSVAPGQTARITCGGNNIGSNNVHWYQQKPGQAPVLVVYDDSDRPSGIPERFSGSNSGNTATLTISRVEAGDEADYYCQVWDSSSDHPVFGGGTKLTVL
result: ≤ 2 µg/mL

binder: 4N10 (antibody, V domains shown, human IgG; also called 4N10-biotin) VH: QVQLVQSGAEVKKPGSSVRVSCKASGGTFSSYVIIWVRQAPGQGLEWMGGVIPIFDTVNYAQKFQGRVTITADESTSTAYMELSSLKSEDTAVYYCARGILAYCGGDCYNTPYGMDVWGQGTTVTVSS VL: DIQMTQSPSILSASVGDRVTITCRASQSISSWLAWYQQKPGKAPKLLIYKASSLEIGVPSRISGSGSGTEFTLTISSLQPDDFATYYCQQYNSSWTFGQGTKVEIK
result: ≤ 2 µg/mL

Next up:
[in] Give the measured 50% neutralization VR1814, MRC-9 for 8L13 (antibody, V domains shown, human IgG) VH: QVQLLESGGGVVQPGRSLRLSCAASGFTFSNYGMHWVRQAPGKGLEWVAVIWNDGSKKYYAESVKGRFTISRDNSKNTVYLQMNSLRAEDTAVYYCARDEGVQMVFAMPDYGMDVWGQGTTVTVSS VL: SYELTQPPSVSVSPGQTASITCSGDKLGDKFACWYQQRPGQSPILVIYQDSKRPSGIPERFSGSNSGNTATLTIRGTQAMDEADYYCQAWDSSTAHYVFGTGTKVTVL
[out] > 2 µg/mL
